# targetOrSystem: Transcription factor Sp1 (Homo sapiens) (UniProt P08047)
# Sequence (P08047 whole entry, looked up): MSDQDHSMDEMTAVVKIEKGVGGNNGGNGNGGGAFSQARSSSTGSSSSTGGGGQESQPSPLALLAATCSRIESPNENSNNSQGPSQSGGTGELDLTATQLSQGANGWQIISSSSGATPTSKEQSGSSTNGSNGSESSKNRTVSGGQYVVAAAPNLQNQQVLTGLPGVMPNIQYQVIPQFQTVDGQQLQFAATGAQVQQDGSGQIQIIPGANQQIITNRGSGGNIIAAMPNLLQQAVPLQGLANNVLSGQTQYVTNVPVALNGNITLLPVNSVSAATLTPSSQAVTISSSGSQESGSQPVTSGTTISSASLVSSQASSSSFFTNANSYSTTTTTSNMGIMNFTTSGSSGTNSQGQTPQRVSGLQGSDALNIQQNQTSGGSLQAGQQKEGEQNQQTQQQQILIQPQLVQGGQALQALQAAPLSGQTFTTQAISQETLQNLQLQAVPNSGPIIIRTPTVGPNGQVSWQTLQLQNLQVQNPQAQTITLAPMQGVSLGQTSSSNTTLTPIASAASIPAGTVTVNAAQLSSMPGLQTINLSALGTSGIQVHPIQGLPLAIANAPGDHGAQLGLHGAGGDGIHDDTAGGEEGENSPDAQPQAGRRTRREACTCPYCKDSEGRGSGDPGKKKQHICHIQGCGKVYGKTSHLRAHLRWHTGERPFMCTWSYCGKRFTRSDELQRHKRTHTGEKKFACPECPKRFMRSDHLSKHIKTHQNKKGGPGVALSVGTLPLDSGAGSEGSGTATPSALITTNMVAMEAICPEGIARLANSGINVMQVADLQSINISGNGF
# testDescription: ATG_Sp1_CIS: Attagene CIS-FACTORIAL HepG2 Assay for human Specificity Protein 1 (Sp1) (AID 2282961)
# assayConditions: HepG2 Sp1 cis-reporter transcription, actives raise or lower the signal
Activity calls are given as the source filed them. The calls were made as follows: active = hit-call score of the fitted dose curve at least 0.9, where 1 is the maximum; inactive = score below 0.9.
Outcome codes: active, inactive

- COc1ccc([N+](=O)[O-])cc1N: inactive
- CC(C)(C)c1ccc(O)c(C(C)(C)C)c1: inactive
- CCCCCCC(=O)O: inactive
- NC(=O)N(O)[C@@H]1C=C[C@H](Oc2cccc(Oc3ccc(F)cc3)c2)C1: inactive
- CN1CCC[C@H]1c1cccnc1: inactive
- CC(=O)CC(C)(C)O: inactive
- c1ccc2cc3c(ccc4ccccc43)cc2c1: inactive
- CCN(CC)CCNc1ccc(CNC=O)c2sc3ccc(OC)cc3c(=O)c12: active
- C=C(C)C(=O)OCCC(F)(F)C(F)(F)C(F)(F)C(F)(F)C(F)(F)C(F)(F)F: inactive
- CCCCCCCC(=O)O: inactive
- C[C@@H]1C[C@H]2[C@@H]3CCC4=CC(=O)C=C[C@]4(C)[C@@]3(F)[C@@H](O)C[C@]2(C)[C@@]1(O)C(=O)COP(=O)(O)O: inactive
- c1ccc2c(c1)Cc1ccccc1-2: inactive
- CCC(C)(C)C1CCC(O)CC1 (stereo not given): inactive
- O=[N+]([O-])c1ccc(O)cc1: inactive
- FC(F)(I)C(F)(F)C(F)(F)C(F)(F)C(F)(F)C(F)(F)I: inactive
